Each item that follows carries a reported Fold Induction Over DMSO control.
Tested on: PC-3 (Prostate) human cancer cell line
Details: PC-3, 10 μM, three days
Square brackets hold non-standard residues; d marks the D form. Peptide text beside a SMILES is read from it. NMeF = CN[C@@H](Cc1ccccc1)C(=O)O; Hica(2S) = CC(C)C[C@H](O)C(=O)O; NMeL = CN[C@@H](CC(C)C)C(=O)O; Aib = CC(C)(N)C(=O)O
Just the number, please.

Ask: Annotate the compound CC(C)C[C@@H]1NC(=O)[C@H](C(C)C)NC(=O)[C@H](CC(C)C)OC(=O)[C@H](CC(C)C)NC(=O)[C@H](Cc2ccccc2)NC1=O [Sansalvamide A, reference compound] (cyclo(FL[Hica(2S)]VL)) with its measured Fold Induction Over DMSO control.
Result: 0.22

Ask: Annotate the compound CC(C)C[C@@H]1NC(=O)[C@H](Cc2ccccc2)NC(=O)[C@H](Cc2ccccc2)N(C)C(=O)[C@H](Cc2ccccc2)NC(=O)C(C)(C)NC(=O)[C@H](CC(C)C)N(C)C(=O)[C@@H]2CCCN2C1=O [Scytalidamide A, reference compound] (cyclo(F[NMeF]FLP[NMeL][Aib])) with its measured Fold Induction Over DMSO control.
Result: 0.15
